# measurement_target: furin, P09958;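 also: purified furin at 1:10 enzyme:substrate in 50 mM HEPES pH 7.5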
# Sequence (P09958 whole entry): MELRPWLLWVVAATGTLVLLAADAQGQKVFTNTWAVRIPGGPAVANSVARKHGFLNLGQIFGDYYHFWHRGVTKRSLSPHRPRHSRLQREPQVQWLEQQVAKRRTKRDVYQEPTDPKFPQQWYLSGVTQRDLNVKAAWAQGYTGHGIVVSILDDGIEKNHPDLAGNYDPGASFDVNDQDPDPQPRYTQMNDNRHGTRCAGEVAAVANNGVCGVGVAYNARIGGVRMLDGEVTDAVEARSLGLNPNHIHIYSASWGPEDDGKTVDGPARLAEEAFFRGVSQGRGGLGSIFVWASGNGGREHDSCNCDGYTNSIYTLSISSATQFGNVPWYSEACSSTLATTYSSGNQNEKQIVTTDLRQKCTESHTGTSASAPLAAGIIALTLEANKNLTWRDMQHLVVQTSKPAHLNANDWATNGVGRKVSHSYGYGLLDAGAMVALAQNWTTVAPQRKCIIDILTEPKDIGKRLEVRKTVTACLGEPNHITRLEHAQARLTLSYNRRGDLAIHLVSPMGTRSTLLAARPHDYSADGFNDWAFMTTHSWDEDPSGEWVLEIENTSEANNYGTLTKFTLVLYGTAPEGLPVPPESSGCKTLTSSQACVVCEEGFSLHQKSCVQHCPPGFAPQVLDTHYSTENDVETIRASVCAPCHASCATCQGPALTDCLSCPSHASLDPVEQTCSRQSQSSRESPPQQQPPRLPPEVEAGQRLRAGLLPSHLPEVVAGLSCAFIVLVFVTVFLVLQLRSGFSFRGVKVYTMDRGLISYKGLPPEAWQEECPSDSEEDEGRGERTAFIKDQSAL
# test_description: furin cleavage Z-score vs untreated control; higher = more cleavage, active = 3.5 or more, inactive = 1 or less, 8 variable residues between constant flanks
# experimental_setup: 7.5 min
The other results are listed elsewhere or left out. The true hit rate is not given.
Classes to choose from: class 1 for active, class 0 for inactive

INSERT INTO results (ordered_residues, cat) VALUES
  ('CAPSRRTRRLAGNASASA [FS-1555]', 'class 1'),
  ('CATDDDFERSAGNASASA [FS-629]', 'class 0'),
  ('CAEILLGPADAGNASASA [HC665]', 'class 0');

// switching to the query sequence
INPUT: Just curious, what result did CAPSCRYRRLAGNASASA [FS-1054] get here?
OUTPUT: class 1

Just for reference, the supplement of paper PMC3545927 is where these values come from.
